- Assay Text: Liver microsomal stability, dog
- Assay type: in vitro ADME
- Condition Info: pH 7.4; dog liver microsomes, 0.5 mg/mL protein, 1 μM compound, NADPH; >80% remaining at 45 min denoted >140; read-out: Liver Microsomal Stability: t1/2 (min); dog
Decision: half-life beneath 40 min gives T; half-life meeting or exceeding 40 min gives F.

Solved cases below.
Smiles Str: O=C(N[C@H]1N=C(c2ccccc2)c2ccccc2NC1=O)c1cn(C2CCC(F)(F)CC2)nc1-c1ccc(NC2CC2)nc1F
Answer Label: F
--
Smiles Str: CCNc1cnc(-c2c(C(=O)N[C@H]3N=C(c4ccccc4)c4cccc(F)c4NC3=O)cnn2CC)c(F)c1
Answer Label: T
--
Smiles Str: CCn1ncc(C(=O)N[C@H]2N=C(c3ccccc3)c3ccccc3NC2=O)c1-c1ncc(NC2CC2)cc1F
Answer Label: F

hey, is half-life for `CC(C)Nc1ccc(-c2c(C(=O)N[C@H]3N=C(c4ccccc4)c4cccc(F)c4NC3=O)cnn2C2CCOCC2)c(F)n1` lower than 40 min or not?
F
